# SYSTEM NAME: hGPR40 (Homo sapiens)
# Construct: 3x FLAG
# Sequence (O14842 whole entry): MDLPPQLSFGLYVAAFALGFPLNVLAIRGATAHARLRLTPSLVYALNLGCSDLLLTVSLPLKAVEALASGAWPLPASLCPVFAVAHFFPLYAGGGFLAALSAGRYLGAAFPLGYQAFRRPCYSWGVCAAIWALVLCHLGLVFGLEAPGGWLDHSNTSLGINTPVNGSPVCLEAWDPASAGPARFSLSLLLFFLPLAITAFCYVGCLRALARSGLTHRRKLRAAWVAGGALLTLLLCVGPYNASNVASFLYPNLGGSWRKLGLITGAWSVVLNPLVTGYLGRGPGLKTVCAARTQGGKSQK
# MEASUREMENT NOTES: FDSS-Based Intracellular Calcium Assay
# SETUP CONDITIONS: cells expressing GPR40, intracellular Ca2+ response
pEC50: −log10 of the molar value.

{"columns": ["COMPOUND", "pEC50"],
 "data": [
  ["CC(C)c1ccccc1Oc1ccc(N2N=C(C#N)CC2CC(=O)O)cc1 (racemic)", 6.37],
  ["COc1ccc(F)c(-c2ccc(Cc3ccc(N4N=C(C(F)(F)F)C(CO)C4CC(=O)O)cc3)c(C)c2)c1 (single isomer, unassigned) [Example 53, Isomer 1]", 6.77],
  ["Cc1cc(Cc2ccc(N3N=C(C(F)(F)F)CC3CC(=O)O)cc2)ccc1-c1cc(C(F)(F)F)ccc1F (racemic)", 6.24],
  ["COc1ccc(F)c(-c2cc(C)c(Cc3ccc(N4N=C(C(F)(F)F)CC4CC(=O)O)cc3)c(F)c2)c1 (single isomer, unassigned) [Example 21, Isomer 2]", 6.57],
  ["Cc1cc(Br)ccc1Oc1ccc(N2N=C(C(F)(F)F)CC2CC(=O)O)cc1 (racemic)", 6.80],
  ["COc1ccc(F)c(-c2ccc(Cc3ccc(N4N=C(C(F)(F)F)C(CC5CC5)C4CC(=O)O)cc3)c(C)c2)c1 (single isomer, unassigned) [Example 46, Isomer 1]", 7.30]
]}

====

The entries below are paired with their reported EC50.
# SYSTEM NAME: hGPR40 (Homo sapiens)
# Construct: 3x FLAG
# MEASUREMENT NOTES: FDSS-Based Intracellular Calcium Assay
# SETUP CONDITIONS: cells expressing GPR40, intracellular Ca2+ response
REPORTED METRIC: EC50 (µM)

{"columns": ["COMPOUND", "U", "READING"],
 "data": [
  ["CCC1C(C(F)(F)F)=NN(c2ccc(Cc3ccc(-c4cc(OC)ccc4F)cc3C)cc2)C1CC(=O)O (single isomer, unassigned) [Example 44, Isomer 2]", "µM", 0.02],
  ["COc1ccc(F)c(-c2ccc(Cc3ccc(N4N=C(c5ccn(C)n5)C(C)C4CC(=O)O)cc3)c(C)c2)c1 (single isomer, unassigned) [Example 55, Isomer 1]", "µM", 5.63],
  ["COc1ccc(F)c(-c2ccc(Oc3ccc(N4N=C(C(F)(F)F)CC4CC(=O)O)cc3)c(C)c2)c1 (single isomer, unassigned) [Example 14, Isomer 2]", "µM", 0.16],
  ["COc1ccc(F)c(-c2ncc(Cc3ccc(N4N=C(c5ccccc5)[C@@H](C)[C@@H]4CC(=O)O)cc3)c(C)n2)c1", "µM", 0.27],
  ["COc1ccc(F)c(-c2ccc(Cc3ccc(N4N=C(c5ccccn5)C(C)C4CC(=O)O)cc3)c(C)c2)c1 (single isomer, unassigned) [Example 62, isomer 1]", "µM", 1.6],
  ["COc1ccc(F)c(-c2ccc(Cc3ccc(N4N=C(C(F)(F)F)C(CC5CC5)C4CC(=O)O)cc3)c(C)c2)c1 (single isomer, unassigned) [Example 46, Isomer 2]", "µM", 1.91],
  ["COc1ccc(F)c(-c2ccc(Cc3ccc(N4N=C(C(F)(F)F)CC4CC(=O)O)cc3)c(F)c2)c1 (single isomer, unassigned) [Example 19, Isomer 1]", "µM", 0.58],
  ["COc1ccc(F)c(-c2ccc(Oc3ccc(N4N=C(C(F)(F)F)CC4CC(=O)O)cc3)cc2C)c1 (single isomer, unassigned) [Example 16, Isomer 1]", "µM", 0.67],
  ["COc1ccc(F)c(-c2ccc(Cc3ccc(N4N=C(C(F)(F)F)CC4(C)CC(=O)O)cc3)c(C)c2)c1 (single isomer, unassigned) [Example 51, Isomer 1]", "µM", 1.55],
  ["Cc1cc(-c2cc(O)ccc2F)ccc1Cc1ccc(N2N=C(C(F)(F)F)[C@@H](C)[C@@H]2CC(=O)O)cc1", "µM", 0.15]
]}
